A collection of compounds and their measured pIC50
Target: human TRPM8 (Homo sapiens, UniProt Q7Z2W7)
Construct: expressed in transfected cells; host or cells: Chinese hamster ovary (CHO) cells, T-REx tetracycline-inducible expression system (Invitrogen); co-transfected with pcDNA3.1 aequorin
Sequence (Q7Z2W7 whole entry): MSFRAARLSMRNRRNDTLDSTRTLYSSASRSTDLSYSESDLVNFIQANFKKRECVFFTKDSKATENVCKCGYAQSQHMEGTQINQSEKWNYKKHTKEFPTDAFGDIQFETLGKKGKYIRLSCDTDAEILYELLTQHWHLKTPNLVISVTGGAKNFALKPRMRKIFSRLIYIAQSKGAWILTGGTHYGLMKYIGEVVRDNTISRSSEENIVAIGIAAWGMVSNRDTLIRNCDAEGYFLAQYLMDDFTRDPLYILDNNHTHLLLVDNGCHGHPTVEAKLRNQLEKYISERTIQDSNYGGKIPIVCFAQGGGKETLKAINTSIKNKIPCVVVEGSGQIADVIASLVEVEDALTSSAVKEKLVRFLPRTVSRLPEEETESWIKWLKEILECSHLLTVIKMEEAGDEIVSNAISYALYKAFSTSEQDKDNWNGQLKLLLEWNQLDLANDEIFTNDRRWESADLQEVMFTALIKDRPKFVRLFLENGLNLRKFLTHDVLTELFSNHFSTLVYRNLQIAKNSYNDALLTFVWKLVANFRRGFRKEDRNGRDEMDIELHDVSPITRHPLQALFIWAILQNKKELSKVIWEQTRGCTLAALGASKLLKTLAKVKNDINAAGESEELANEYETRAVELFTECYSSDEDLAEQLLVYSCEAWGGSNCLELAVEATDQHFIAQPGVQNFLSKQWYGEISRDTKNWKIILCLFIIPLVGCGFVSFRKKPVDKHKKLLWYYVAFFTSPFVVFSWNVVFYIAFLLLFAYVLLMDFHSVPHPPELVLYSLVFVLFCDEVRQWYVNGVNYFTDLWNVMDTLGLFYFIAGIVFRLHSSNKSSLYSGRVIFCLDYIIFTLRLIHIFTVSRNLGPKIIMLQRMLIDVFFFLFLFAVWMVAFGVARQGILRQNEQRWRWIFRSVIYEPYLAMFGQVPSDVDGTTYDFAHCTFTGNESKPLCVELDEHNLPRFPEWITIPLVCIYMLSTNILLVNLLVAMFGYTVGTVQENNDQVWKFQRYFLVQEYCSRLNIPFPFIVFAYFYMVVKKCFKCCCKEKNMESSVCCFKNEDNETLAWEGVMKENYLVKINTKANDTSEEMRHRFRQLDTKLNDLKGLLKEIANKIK
Assay: Luminescence readout assay for measuring intracellular calcium (aequorin, CHO cells expressing human TRPM8; icilin, L-menthol or cold activation)
Type: cell-based
Conditions: CHO cells expressing human TRPM8, icilin activation (1 μM), aequorin luminescence; read-out: hTRPM8 IC50
The read-out pIC50 is expressed as -log10 of concentration in moles per litre.

Here is how some compounds turned out for pIC50.
INSERT INTO results (smiles_structure, recorded_result) VALUES
  ('O=C(N[C@]1(c2ccc(OC(F)(F)F)c(F)c2)CCOc2cccnc21)c1cc(F)c(O)c(F)c1', 9.00),
  ('O=C(N[C@]1(c2ccc(OC(F)(F)F)c(F)c2)CCOc2cccnc21)c1ccc2cc(C(=O)O)[nH]c2c1', 6.93),
  ('Nc1cccc(-c2ccc([C@@]3(NC(=O)c4ccc(F)cc4)CCOc4cccnc43)cc2)c1', 6.04);

What does the data say about its pIC50? Entry: "N#Cc1ccc(C(=O)N[C@]2(c3ccc(OC(F)(F)F)c(F)c3)CCOc3cccnc32)nc1"
7.92
